# Test system: SK-MEL-28
# method_summary: NCI tumour cell line growth inhibition, 48 h
The source made the active and inactive calls. No stated cut-off is given here; in the data, active = GI50 up to about 1.1 µM and inactive = higher.
property_name: GI50

{"columns": ["compound", "property_name", "experimental_result"],
 "data": [
  ["Cc1cc2c(c(/C=N/c3ccccc3O)c1)OC1(C=C2)Oc2ccccc2C(=O)N1C (stereo not drawn)", "GI50", "18.3 µM (inactive)"],
  ["CCCCCNc1nonc1N", "GI50", "> 100 µM (inactive)"],
  ["CCOC(=O)C1(C(=O)OCC)CC(=O)[C@@]2(C1)OCC[C@H]1OC(=O)C[C@H]12", "GI50", "> 100 µM (inactive)"],
  ["c1ccc2c(c1)c1c(n2CCOCCCN2CCCCC2)CCCC1", "GI50", "20.1 µM (inactive)"],
  ["CC(C)N(C)C(=O)C12C3C4C1C1C2C3C41C#N (stereo not drawn)", "GI50", "> 100 µM (inactive)"],
  ["CSc1ccc(/C=C2\\N=C(c3ccccc3)N(c3nc4c(Cl)cc(Cl)cc4s3)C2=O)cc1", "GI50", "31.1 µM (inactive)"],
  ["COc1cc(C2(C)SCCCS2)c(I)c(OC)c1OC", "GI50", "> 100 µM (inactive)"],
  ["CN(/N=C/c1ccnc2ccccc12)c1c([N+](=O)[O-])cc([N+](=O)[O-])cc1[N+](=O)[O-]", "GI50", "60.5 µM (inactive)"],
  ["NC(=O)c1ccccc1NC(=O)C(=O)Cc1nc2ccccc2nc1O", "GI50", "> 100 µM (inactive)"],
  ["COc1cc(N)c2[nH]c3c(C)ccc(C)c3c2c1", "GI50", "> 100 µM (inactive)"],
  ["CC(=O)O[C@H]1CC[C@@]2(C)C(=CC[C@@H]3C2CC[C@]2(C)Nc4oncc4CC32)C1 (stereo partly drawn)", "GI50", "37.2 µM (inactive)"],
  ["Cc1cccc(C)c1NC(=O)CCc1n[nH]c(=S)o1", "GI50", "> 100 µM (inactive)"],
  ["CCC(CN(C)C)C(=O)c1ccco1 (stereo not drawn)", "GI50", "> 100 µM (inactive)"],
  ["O=C(O)C1C2CCC(O2)C1C(=O)Nc1cccc2cccnc12 (stereo not drawn)", "GI50", "> 100 µM (inactive)"],
  ["C=CCNC1=C2C[C@@H](C)C[C@@H](OC)[C@H](OC(=O)CCN)[C@H](C)/C=C(\\C)[C@@H](OC(N)=O)[C@H](OC)/C=C\\C=C(/C)C(=O)NC(=CC1=O)C2=O", "GI50", "14.5 µM (inactive)"],
  ["COc1ccc2nc3ccccc3c(NCCCCN(C)CCCl)c2c1", "GI50", "0.367 µM (active)"],
  ["COc1nc2ncc([C@@H](O)[C@H](O)CO)nc2c(=O)n1C", "GI50", "> 100 µM (inactive)"],
  ["CCC(C)[C@H](NC(=O)N[C@H](C)c1ccccc1)C(=O)OC (stereo partly drawn)", "GI50", "> 100 µM (inactive)"],
  ["[O-][S+]1c2ccccc2N=C(c2ccc3ccccc3c2)CC1c1ccccc1F (stereo not drawn)", "GI50", "> 100 µM (inactive)"],
  ["COc1cccc2c1OC(c1ccc(C#N)cc1)C([N+](=O)[O-])=C2 (stereo not drawn)", "GI50", "2.28 µM (inactive)"],
  ["CCOC(=O)c1ccc(-n2nnc(C(N)=O)c2O)cc1", "GI50", "> 100 µM (inactive)"],
  ["c1ncc(C23C4C5C6C4C2C6C53)[nH]1 (stereo not drawn)", "GI50", "> 100 µM (inactive)"],
  ["CC(C)(C)C1=CC(=C(c2ccc(-c3c4nc(c(-c5ccc(C(=C6C=C(C(C)(C)C)C(=O)C(C(C)(C)C)=C6)c6cc(C(C)(C)C)c(O)c(C(C)(C)C)c6)cc5)c5ccc([nH]5)c(-c5ccc(C(=C6C=C(C(C)(C)C)C(=O)C(C(C)(C)C)=C6)c6cc(C(C)(C)C)c(O)c(C(C)(C)C)c6)cc5)c5nc(c(-c6ccc(C(=C7C=C(C(C)(C)C)C(=O)C(C(C)(C)C)=C7)c7cc(C(C)(C)C)c(O)c(C(C)(C)C)c7)cc6)c6ccc3[nH]6)C=C5)C=C4)cc2)c2cc(C(C)(C)C)c(O)c(C(C)(C)C)c2)C=C(C(C)(C)C)C1=O", "GI50", "> 100 µM (inactive)"],
  ["COC(=O)C1(Cc2ccc3c(c2)CCC3)Cc2ccc3c(c2C1)CCC3 (stereo not drawn)", "GI50", "23.9 µM (inactive)"],
  ["CC(=O)OCC1OC(OC2C(CSC3OC(COC(C)=O)C(OC(C)=O)C(OC(C)=O)C3OC(C)=O)OC(OC(C)=O)C(OC(C)=O)C2OC(C)=O)C(OC(C)=O)C(OC(C)=O)C1OC(C)=O (stereo not drawn)", "GI50", "> 100 µM (inactive)"],
  ["Cc1ccccc1C(O)(c1nccn1C)c1nccn1C", "GI50", "> 100 µM (inactive)"],
  ["CN(Cc1c2ccccc2cc2ccccc12)S(=O)(=O)c1ccc(-c2c3nc(c(-c4ccc(S(=O)(=O)N(C)Cc5c6ccccc6cc6ccccc56)cc4)c4ccc([nH]4)c(-c4ccc(S(=O)(=O)N(C)Cc5c6ccccc6cc6ccccc56)cc4)c4nc(c(-c5ccc(S(=O)(=O)N(C)Cc6c7ccccc7cc7ccccc67)cc5)c5ccc2[nH]5)C=C4)C=C3)cc1", "GI50", "> 100 µM (inactive)"],
  ["CC(C)NC(=O)OCc1nnn2c1CCC2", "GI50", "> 100 µM (inactive)"],
  ["CC[C@]12C=CCN3CCC4(c5cc(/N=N/c6ccccc6)c(OC)cc5N(C)[C@H]4[C@@](O)(C(=O)OC)[C@@H]1OC(C)=O)[C@@H]32 (stereo partly drawn)", "GI50", "20.3 µM (inactive)"],
  ["COC(=O)c1c2c(c3[nH]c4ccccc4c3c1C(=O)OC)C(=O)C1=C(C2=O)C2(Cl)C(Cl)C(Cl)C1(Cl)C2(Cl)Cl (stereo not drawn)", "GI50", "1.56 µM (inactive)"],
  ["O=[N+]([O-])C1=Cc2c(O)ccc(O)c2C2OC=CC12 (stereo not drawn)", "GI50", "44.8 µM (inactive)"],
  ["c1ccc(COC[C@H]2C3OCC([C@H](OCc4ccccc4)[C@H]3OCc3ccccc3)N2Cc2ccccc2)cc1 (stereo partly drawn)", "GI50", "> 53.2 µM (inactive)"],
  ["CCCCCN(CCCCC)C(=O)[C@H](CCC(=O)OCc1ccccc1)NC(=O)c1cc2ccccc2[nH]1", "GI50", "> 100 µM (inactive)"]
]}

---

The following molecules have recorded GI50 on HCT-15.

{"columns": ["molecule", "GI50"],
 "data": [
  ["O=C(O)c1cc(/N=C/c2ccccc2O)cc(C(=O)O)c1", "> 100 µM"],
  ["O=C(Cc1nc2ccccc2s1)C(=O)Nc1ccc(Cl)cc1Cl", "> 100 µM"],
  ["CN1C(=O)CSC1=S", "> 100 µM"],
  ["COCCN(C(=O)c1ccccc1)C1CCC(=O)c2[nH]c3ccccc3c21 (stereo not given)", "16.4 µM"],
  ["CCOC(=O)Cn1c(C)nc2nn(Cc3ccccc3)cc2c1=O", "> 100 µM"],
  ["O=C1/C(=C/c2ccccc2S)N=C(c2ccccc2)N1c1ccc2c(c1)Sc1cc(N3C(=O)/C(=C/c4ccccc4S)N=C3c3ccccc3)ccc1N2", "31.6 µM"],
  ["O=C1c2cc3c(cc2CC12Cc1ccc4c(c1C2=O)CCC4)CCCC3 (stereo not given)", "> 100 µM"],
  ["CCCCCCCC1(N=[N+]=[N-])C(=O)c2ccccc2N(C)C1=O (stereo not given)", "> 100 µM"],
  ["Cc1nc2c(nc1Cl)nc(Oc1ccc(Cl)cc1)c1ccccc12", "> 100 µM"],
  ["CC(=O)O[C@H]1CC[C@@]2(C)C(=CC[C@@H]3C2CC[C@]2(C)Nc4oncc4CC32)C1 (stereo not given in full)", "33 µM"],
  ["Cc1ccc2nc(N/N=C/c3sccc3C)cc(C)c2c1", "> 100 µM"],
  ["NC(=O)c1ccccc1NC(=O)C(=O)Cc1nc2ccccc2nc1O", "> 100 µM"],
  ["CC1=CC(C/C(C)=C/COc2ccc3ccc(=O)oc3c2)OC1=O (stereo not given)", "95.9 µM"],
  ["COC(=O)C(NC(=O)OC(C)(C)C)P(=O)(OC)OC (stereo not given)", "> 100 µM"],
  ["CC1OC(OC2C(OC(=O)[C@]34CCC(C)(C)CC3C3=CCC5[C@@]6(C)C[C@H](O)[C@H](OC7OC(COC8OC(CO)C(O)C(O)C8O)C(O)C(O)C7O)[C@@](C)(C(=O)O)C6CC[C@@]5(C)C3(C)CC4)OCC(O)C2O)C(O)C(O)C1OC1OCC(O)C(O)C1O (stereo not given in full)", "> 100 µM"],
  ["CN(C)CCNc1ncnc2[nH]c(-c3ccc4ccccc4c3)nc12", "> 100 µM"],
  ["Cn1c(=O)cc(N2CCCC2)[nH]c1=O", "> 100 µM"],
  ["C/C(COc1ccccc1)=N\\NC(N)=S", "> 100 µM"],
  ["Cc1cc2c(c(/C=N/c3ccccc3O)c1)OC1(C=C2)Oc2ccccc2C(=O)N1C (stereo not given)", "15.9 µM"],
  ["O=c1c(Cc2c(O)ccc3ccccc23)nnc2sc(-c3nn4c(=O)c(Cc5c(O)ccc6ccccc56)nnc4s3)nn12", "> 100 µM"]
]}
